Assign Cellular inhibition, fold change to each entry below.
- test system: T1, human IL-25 (human, UniProt Q9H293 33-177)
- T1 sequence: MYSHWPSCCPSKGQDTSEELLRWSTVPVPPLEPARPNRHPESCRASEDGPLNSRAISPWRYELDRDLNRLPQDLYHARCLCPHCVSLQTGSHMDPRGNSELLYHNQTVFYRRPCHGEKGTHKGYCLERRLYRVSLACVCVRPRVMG
- assay procedure: cell-based or functional assay
One number for each entry, in fold change.

I25M34 (antibody, V domains shown, One of the 9 candidate IgG1 mAbs of the combinatorial library based on huDDG91) VH: EVQLVESGAEVKKPGASVKVSCKASGYSFSGYTMNWVRQAPGQRLEWMGLINPYNGGTSYNQNFKGRVTLTVDTSASTAYLELNSLRSEDTGVYYCAREDFDSWTYFAMDYWGQGTLVTVS VL: DIQMTQSPSSLSASVGDRVTITCSASQGINEYLNWYQQKPGKVPKLLIYYTSSLHSGVPSRFSGSGSGTDFTLTISSLQPEDVATYYCQQYINFPYTFGQGTKLEIK
7
M6 antibody (antibody, human IgG1, kappa, V domains shown, Humanized IgG1 mAb with kappa light chain, a variant of huDDG91 with three substitutions in light chain CDR3) VH: EVQLVESGAEVKKPGASVKVSCKASGYSFSGYTMNWVRQAPGQRLEWMGLINPYNGGTSYNQNFKGRVTLTVDTSASTAYLELNSLRSEDTGVYYCAREDYDGYLYFAMDYWGQGTLVTVSS VL: DIQMTQSPSSLSASVGDRVTITCSASQGISNYLNWYQQKPGKVPKLLIYYTSSLHSGVPSRFSGSGSGTDFTLTISSLQPEDVATYYCQQYLAFPYTFGQGTKLEIKR
4
I25M20 (antibody, V domains shown, One of the 9 candidate IgG1 mAbs of the combinatorial library based on huDDG91) VH: EVQLVESGAEVKKPGASVKVSCKASGYSFSGYTMNWVRQAPGQRLEWMGLINPYNGGTSYNQNFKGRVTLTVDTSASTAYLELNSLRSEDTGVYYCAREDYDSWTFFAMDYWGQGTLVTVS VL: DIQMTQSPSSLSASVGDRVTITCSASQGISNYLNWYQQKPGKVPKLLIYYTSSLHSGVPSRFSGSGSGTDFTLTISSLQPEDVATYYCQQYLAFPYTFGQGTKLEIK
20

Kindly give each listed record's Cellular inhibition, fold change.
1. I25M10 (antibody, V domains shown, One of the 9 candidate IgG1 mAbs of the combinatorial library based on huDDG91) VH: EVQLVESGAEVKKPGASVKVSCKASGYSFSGYTMNWVRQAPGQRLEWMGLINPYNGGTSYNQNFKGRVTLTVDTSASTAYLELNSLRSEDTGVYYCAREDFDSWTFFAMDYWGQGTLVTVS VL: DIQMTQSPSSLSASVGDRVTITCSASQGISNYLNWYQQKPGKVPKLLIYYTSSLHSGVPSRFSGSGSGTDFTLTISSLQPEDVATYYCQQYLAFPYTFGQGTKLEIK
2. I25M31 (antibody, V domains shown, One of the 9 candidate IgG1 mAbs of the combinatorial library based on huDDG91) VH: EVQLVESGAEVKKPGASVKVSCKASGYSFSGYTMNWVRQAPGQRLEWMGLINPYNGGTSYNQNFKGRVTLTVDTSASTAYLELNSLRSEDTGVYYCAREDFDSWTYFAMDYWGQGTLVTVS VL: DIQMTQSPSSLSASVGDRVTITCSASQGISNYLNWYQQKPGKVPKLLIYYTSSLHSGVPSRFSGSGSGTDFTLTISSLQPEDVATYYCQQYSKLPYTFGQGTKLEIK

[out]
5
12
